Assay: RP, Waters CORTECS UPLC C18, 100 × 2.1 mm, 1.6 µm, 40 °C, 0.4 mL/min, estimated dead time 0.55 min; A: water + 0.1% formic acid, pH 3; B: acetonitrile + 0.1% formic acid, pH 3; gradient (min/%B) 0/5 1.12/5 6.41/99.5 10.01/99.5
Stated conditions: stereoisomer not certain
Mark rule met only when LC retention time stays strictly below 5 min. Values equal to the cut-off are rule not met.

Worked set:
{"columns": ["Molecule", "Label"],
 "data": [
  ["CCOC(=O)C(SP(=S)(OC)OC)c1ccccc1 (stereo not given) [Phenthoate]", "rule not met"],
  ["CC(C)(C)N(NC(=O)c1ccc(Cl)cc1)C(=O)c1ccccc1 [Halofenozide]", "rule met"],
  ["CC1C(=O)Nc2ccccc21 (stereo not given)", "rule met"],
  ["COc1cc(OC)nc(Oc2cccc(Oc3nc(OC)cc(OC)n3)c2C(=O)[O-])n1.[Na+] [Bispyribac sodium salt]", "rule met"],
  ["CCCN(CCOc1c(Cl)cc(Cl)cc1Cl)C(=O)n1ccnc1", "rule met"],
  ["Cc1c[nH]c(=O)[nH]c1=O", "rule met"],
  ["O=C(O)CCc1ccccc1O [3-(2-HYDROXYPHENYL)PROPANOATE]", "rule not met"]
]}

Ask: State whether 5 min exceeds LC retention time recorded for CC1(C)CCC(=Cc2ccc(Cl)cc2)C1(O)Cn1cncn1 (stereo not given) .
Result: rule met

###

Assay: RP, Waters CORTECS UPLC C18, 100 × 2.1 mm, 1.6 µm, 40 °C, 0.4 mL/min, estimated dead time 0.55 min; A: water + 0.1% formic acid, pH 3; B: acetonitrile + 0.1% formic acid, pH 3; gradient (min/%B) 0/5 1.12/5 6.41/99.5 10.01/99.5
Stated conditions: stereoisomer not certain
Sorting guide: entries reporting LC retention time beneath 4 min go in the Met pile, the rest go in the Not met pile.

Sample answers from the record:
{"columns": ["Compound", "Label"],
 "data": [
  ["O=C(O)c1cccnc1C(=O)O [2,3-Pyridinedicarboxylic acid]", "Met"],
  ["CCCCCCCCCCC[n+]1cccc(S(=O)(=O)[O-])c1 [C11-APS]", "Not met"],
  ["O=c1[nH]c(=O)c2ncn(C3OC(CO)C(O)C3O)c2[nH]1 (centres undefined) [XANTHOSINE]", "Met"],
  ["CCOP(=S)(OCC)SCSP(=S)(OCC)OCC [Ethion]", "Not met"],
  ["C[N+](C)(C)CC(CC(=O)[O-])OC(=O)CCCCC(=O)[O-].[H+] [Adipoyl-L-carnitine]", "Met"],
  ["CC(=O)N[C@@H](Cc1ccc(O)cc1)C(=O)O [N-Acetyl-L-tyrosine]", "Met"]
]}

Ask: Determine whether this compound shows LC retention time lower than 4 min (ties excluded): CCOP(=O)(SC(C)CC)N1CCSC1=O (centres undefined) [Fosthiazate]
Result: Not met

Ask: Param item: Cn1cnc2c(ncn2C2OC(CO)C(O)C2O)c1=N (centres undefined) [1-METHYLADENOSINE]
Result: Met

Ask: Can you handle CCCCCC=CC(=O)OC(CC(=O)[O-])C[N+](C)(C)C [trans-2-Octenoyl-L-carnitine] next?
Result: Met

Ask: Subsequent entry: CC1(C(=O)Nc2ccc(O)c(Cl)c2Cl)CCCCC1 [Fenhexamid]
Result: Not met

Ask: Let us now turn to Cc1ncc2c(c1O)C(=O)OC2 [4-Pyridoxolactone]
Result: Met
